For each record, write down the corresponding pIC50.
Target: PDK-1 (Homo sapiens, UniProt O15530)
Sequence (O15530 whole entry): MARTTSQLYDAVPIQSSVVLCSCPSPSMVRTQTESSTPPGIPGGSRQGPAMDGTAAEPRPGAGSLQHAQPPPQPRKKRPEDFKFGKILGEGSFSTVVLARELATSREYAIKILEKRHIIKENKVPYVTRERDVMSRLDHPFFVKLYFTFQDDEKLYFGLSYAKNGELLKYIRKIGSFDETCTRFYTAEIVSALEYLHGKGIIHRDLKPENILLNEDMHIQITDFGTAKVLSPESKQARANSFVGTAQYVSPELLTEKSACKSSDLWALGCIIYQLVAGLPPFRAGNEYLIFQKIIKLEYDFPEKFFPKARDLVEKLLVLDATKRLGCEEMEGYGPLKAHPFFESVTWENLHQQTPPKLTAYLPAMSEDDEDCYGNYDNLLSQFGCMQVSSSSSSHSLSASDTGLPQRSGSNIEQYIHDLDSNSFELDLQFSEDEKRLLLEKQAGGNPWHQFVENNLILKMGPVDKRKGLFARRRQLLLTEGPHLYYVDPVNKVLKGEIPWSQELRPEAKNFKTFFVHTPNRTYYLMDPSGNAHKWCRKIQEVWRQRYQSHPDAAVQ
Experiment: PDK-1 kinase inhibition ELISA assay (phosphorylation of His6-tagged SGK1 S422D by PDK-1)
Type: biochemical
Details: PDK-1 ELISA, Table 11; read-out: Average IC50
Would you please state pIC50, meaning minus log10 of the concentration in mol/L, as a bare number?

Return pIC50 (reported value) for this compound: COc1cc2ncc3c(N)nc(-c4cncc(OC[C@@H](N)COCc5ccccc5)c4)cc3c2cc1OC 8.30

Return pIC50 (reported value) for this compound: COc1cc2ncc3c(N)nc(-c4cncc(Nc5ccccc5C#N)c4)cc3c2cc1OC 6.98

Return pIC50 (reported value) for this compound: COc1cc2ncc3c(N)nc(-c4cncc(OC[C@@H](N)CSc5ccccc5)c4)cc3c2cc1OC 8.40

Return pIC50 (reported value) for this compound: COCCOc1cc2ncc3c(N)nc(-n4cnc(C)c4)cc3c2cc1OC 6.97

Return pIC50 (reported value) for this compound: COc1cc2ncc3c(N)nc(-c4cncc(OC[C@@H](N)Cc5ccc(F)cc5)c4)cc3c2cc1OC 8.52

Return pIC50 (reported value) for this compound: COc1cc2ncc3c(N)nc(-c4cncc(OC[C@@H](N)CN5CCc6ccccc6C5)c4)cc3c2cc1OC 7.21

Return pIC50 (reported value) for this compound: CC[C@@H](COc1cncc(-c2cc3c(cnc4cc(OC)c(OC)cc43)c(N)n2)c1)NC(=N)N 7.49

###

For each record, write down the corresponding pIC50.
Molecular target: PDK-1 (Homo sapiens, UniProt O15530)
Assay: PDK-1 kinase inhibition ELISA assay (phosphorylation of His6-tagged SGK1 S422D by PDK-1)
Format: biochemical
Details: PDK-1 ELISA, Table 11; read-out: Average IC50
Would you please state pIC50, meaning minus log10 of the concentration in mol/L, as a bare number?

Return pIC50 (reported value) for this compound: COc1cc2ncc3c(N)nc(-n4cnc(CO)c4)cc3c2cc1OC [Ib-69] 6.69

Return pIC50 (reported value) for this compound: CCOc1cc2ncc3c(N)nc(-n4ccnc4)cc3c2cc1NC(=O)Nc1ccc(N(C)C)cc1 [Ia-27] 6.21

Return pIC50 (reported value) for this compound: COc1cc2ncc3c(N)nc(-c4cncc(OC[C@@H](N)COc5ccc(Cl)cn5)c4)cc3c2cc1OC [Ib-154] 8.40

Return pIC50 (reported value) for this compound: COCCOc1cc2ncc3c(N)nc(N4CCCC4)cc3c2cc1OC [Ia-62] 5.73

Return pIC50 (reported value) for this compound: COc1cc2ncc3c(N)nc(-c4cncc(Nc5c(F)c(F)c(C(N)=O)c(F)c5F)c4)cc3c2cc1OC [Ib-190] 6.71

Return pIC50 (reported value) for this compound: COc1cc2ncc3c(N)nc(-c4cncc(OC[C@@H](N)CSc5ccncc5)c4)cc3c2cc1OC [Ib-164] 8.00

Return pIC50 (reported value) for this compound: COc1cc2ncc3c(N)nc(-c4cncc(OC[C@H](N)Cc5ccc(F)cc5)c4)cc3c2cc1OC [Ib-47] 7.82

Return pIC50 (reported value) for this compound: COc1cc2ncc3c(N)nc(-c4cncc(OC[C@@H](N)COc5ccncc5)c4)cc3c2cc1OC [Ib-151] 8.00
